Origin of the recorded values: paper PMC9636267

- Measurement target: T1, HCoV-229E S1 subunit (17–560 aa) (human coronavirus 229E, UniProt P15423 17-560)
- T1 chain: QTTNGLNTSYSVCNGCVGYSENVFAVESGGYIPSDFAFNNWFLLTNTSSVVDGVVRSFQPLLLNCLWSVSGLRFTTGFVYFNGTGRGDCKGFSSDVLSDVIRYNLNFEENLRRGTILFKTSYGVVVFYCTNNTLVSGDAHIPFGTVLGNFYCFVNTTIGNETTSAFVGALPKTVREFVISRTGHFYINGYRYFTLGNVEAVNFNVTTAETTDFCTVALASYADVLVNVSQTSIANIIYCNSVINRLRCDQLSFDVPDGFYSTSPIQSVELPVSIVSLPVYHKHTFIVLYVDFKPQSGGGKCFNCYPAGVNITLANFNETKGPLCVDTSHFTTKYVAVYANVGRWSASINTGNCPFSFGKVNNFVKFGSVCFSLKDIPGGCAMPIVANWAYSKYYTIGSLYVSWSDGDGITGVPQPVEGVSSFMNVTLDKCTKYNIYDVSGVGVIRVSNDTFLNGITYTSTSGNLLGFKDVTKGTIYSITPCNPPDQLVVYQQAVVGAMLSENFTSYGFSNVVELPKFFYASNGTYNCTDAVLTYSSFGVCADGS
- Experimental details: SPR
Measured attribute: Kd (nM)
One number for each entry, in nM.

Binder	Unit label	Kd
Fab A11 (Fab, V domains shown) VH: EVQLVESGGGLVQPGGSLRLSCAASGFNIYSSYIHWVRQAPGKGLEWVASISSSYGYTYYADSVKGRFTISADTSKNTAYLQMNSLRAEDTAVYYCARGHGWAYVWSSYYPAGAFALDYWGQGTLVTVSS VL: DIQMTQSPSSLSASVGDRVTITCRASQSVSSAVAWYQQKPGKAPKLLIYSASSLYSGVPSRFSGSRSGTDFTLTISSLQPEDFATYYCQQSYALITFGQGTKVEIK	nM	3.2

Hi there! I need Kd for each item below, if you can.
1. Fab A01 (Fab, V domains shown) VH: EVQLVESGGGLVQPGGSLRLSCAASGFNISSSYIHWVRQAPGKGLEWVASIYSYYSSTSYADSVKGRFTISADTSKNTAYLQMNSLRAEDTAVYYCARGGYAFYGYGSPHSWYALDYWGQGTLVTVSS VL: DIQMTQSPSSLSASVGDRVTITCRASQSVSSAVAWYQQKPGKAPKLLIYSASSLYSGVPSRFSGSRSGTDFTLTISSLQPEDFATYYCQQWWPGSWGPITFGQGTKVEIK
2. Fab B10 (Fab, V domains shown) VH: EVQLVESGGGLVQPGGSLRLSCAASGFNLSSSSMHWVRQAPGKGLEWVAYIYPSYSSTYYADSVKGRFTISADTSKNTAYLQMNSLRAEDTAVYYCARASGHFWAYGFDYWGQGTLVTVSS VL: DIQMTQSPSSLSASVGDRVTITCRASQSVSSAVAWYQQKPGKAPKLLIYSASSLYSGVPSRFSGSRSGTDFTLTISSLQPEDFATYYCQQYSYSGPFTFGQGTKVEIK

Result:
1. 17
2. 2.3
